Numbers sourced from patent US9115073B2.

biological target: hPPARdelta (Homo sapiens); construct: Gal4-hPPARδ(LBD); Gal4 (fusion partner); expressed in transfected cells; host or cells: COS-7 (monkey kidney); assay: Gal4-hPPARdelta transactivation assay in COS-7 cells (luciferase); format: cell-based; conditions: Gal4-hPPARδ(LBD) transactivation; listed as cpd 14-2-1
Sequence (Q03181 211-439 limits assumed): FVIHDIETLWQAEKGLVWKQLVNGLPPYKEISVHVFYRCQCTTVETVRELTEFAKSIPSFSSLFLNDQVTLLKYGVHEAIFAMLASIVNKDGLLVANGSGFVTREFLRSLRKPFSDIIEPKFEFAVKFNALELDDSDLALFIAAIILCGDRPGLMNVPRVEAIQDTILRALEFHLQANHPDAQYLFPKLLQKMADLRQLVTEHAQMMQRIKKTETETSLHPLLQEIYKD
Parameter: EC50 (µM)
Write the number in µM without appending the unit.

Tell me measured EC50 for COC(c1ccc(OC(F)(F)F)cc1)C1CC1c1cc(C)c(OC(C)(C)C(=O)O)c(C)c1 (stereo not shown) [Cpd 14-2-1] please.
0.019

###

Test: Compound pharmacokinetics study in mice (plasma and brain)
Type: in vivo
Settings: male, Swiss; mouse, brain; iv (2 mpk) or PO (10 mpk), followed for 24 hours
Procedure: Compound Pharmacokinetics Study in Mice The compound was administered to six male swiss mice (five weeks old) by the PO route and six male mice by the iv route (caudal vein). […] After blood sampling, the animals were perfused with 7 ml cold saline solution directly into the heart to extract the maximum of blood from the brain vasculature. […] Prior to the sample analysis, the suitability of the analytical method to detect the compounds to be evaluated was performed as described below. […]
Parameter: AUC(0-t)

Tell me measured AUC(0-t) for COC(c1ccc(OC(F)(F)F)cc1)C1CC1c1cc(C)c(OC(C)(C)C(=O)O)c(C)c1 (single isomer, unassigned) please.
26700 ng·h/mL

###

Target: hPPARalpha (Homo sapiens)
Construct: Gal4-hPPARα(LBD); Gal4 (fusion partner); expressed in transfected cells; host or cells: COS-7 (monkey kidney)
Sequence (Q07869 239-466 limits assumed): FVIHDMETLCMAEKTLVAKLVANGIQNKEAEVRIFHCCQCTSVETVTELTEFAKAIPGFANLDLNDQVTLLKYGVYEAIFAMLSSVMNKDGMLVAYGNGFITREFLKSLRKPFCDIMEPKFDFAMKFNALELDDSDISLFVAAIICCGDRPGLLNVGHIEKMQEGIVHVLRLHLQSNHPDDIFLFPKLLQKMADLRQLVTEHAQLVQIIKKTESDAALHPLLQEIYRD
Test: Gal4-hPPARalpha transactivation assay in COS-7 cells (luciferase)
Type: cell-based
Conditions: Gal4-hPPARα(LBD) transactivation
Parameter: EC50 (nM)
Write the number in nM without appending the unit.

# lookup: hPPARalpha (Homo sapiens) EC50, key = COC(c1ccc(OC(F)(F)F)cc1)C1CC1c1ccc(OC(C)(C)C(=O)O)c(C)c1 (racemic) [Cpd 7-1]
265

# lookup: hPPARalpha (Homo sapiens) EC50, key = COC(c1ccc(OC(F)(F)F)cc1)C1CC1c1cc(C)c(OC(C)(C)C(=O)O)c(C)c1 (single isomer, unassigned) [Cpd 14-2]
41

# lookup: hPPARalpha (Homo sapiens) EC50, key = COC(c1ccccc1OC(F)(F)F)C1CC1c1cc(C)c(OC(C)(C)C(=O)O)c(C)c1 (single isomer, unassigned) [Cpd 13-2]
623

# lookup: hPPARalpha (Homo sapiens) EC50, key = CCCCCCOc1ccccc1C(OC)C1CC1c1cc(C)c(OC(C)(C)C(=O)O)c(C)c1 (racemic) [Cpd 18-1]
59

# lookup: hPPARalpha (Homo sapiens) EC50, key = COC(c1ccc(Br)cc1)C1CC1c1cc(C)c(OC(C)(C)C(=O)O)c(C)c1 (racemic) [Cpd 1-1]
239

# lookup: hPPARalpha (Homo sapiens) EC50, key = COC(c1ccc(C(F)(F)F)cc1F)C1CC1c1cc(C)c(OC(C)(C)C(=O)O)c(C)c1 (single isomer, unassigned) [Cpd 12-1]
53

# lookup: hPPARalpha (Homo sapiens) EC50, key = COC(c1ccccc1OC(F)(F)F)C1CC1c1cc(C)c(OC(C)(C)C(=O)O)c(C)c1 (single isomer, unassigned) [Cpd 13-1]
652
